system: MDA-MB-468 breast; experiment: NCI tumour cell line growth inhibition, 48 h; in the data active = GI50 below about 0.43 µM; inactive = the rest
Outcome codes: y = active, n = inactive

{"columns": ["molecule", "category-label"],
 "data": [
  ["CC(=O)c1ccc2c(c1)N(CCCN(C)C)c1ccccc1S2", "n"],
  ["COc1cc(C2C3=C(COC3=O)Nc3cc4c(cc32)OCO4)cc2c1OCO2 (stereo not drawn)", "y"],
  ["CC1=C2C(=C[C@@](C)(CO)[C@@H]2O)/C(=N\\N)[C@](C)(O)C12CC2", "n"],
  ["CC/C=C\\C[C@H](O)C/C=C1/C(=O)C=C[C@@H]1C/C=C\\CCCC(=O)NC", "n"],
  ["CC1(C)CC(=O)c2c(ccc(C(=O)C[C@@H](N)CO)c2N)O1", "n"],
  ["Cc1cc(O)cc(C)c1/C=C/c1cncc(C(=O)OC(C)(C)C)c1", "n"],
  ["N=C(N)SCc1ccc([N+](=O)[O-])cc1[N+](=O)[O-]", "n"],
  ["COc1ccc(Oc2cc(NCCC(F)(F)F)c3ncc(-c4ccc(C(=O)NC5CC5)c(C)c4)n3n2)c(F)c1F", "n"],
  ["COc1ccc2[nH]c(O)c(/C=c3/ccc4c(c3)N=C(c3ccc(F)cc3)N=4)c2c1", "n"],
  ["Clc1ccc(N2CCC(N3CCCC3)CC2)cc1-c1nc2ccccc2[nH]1", "n"],
  ["CC1(C)CC[C@]2(C(=O)Nc3ccc(F)cc3)CC[C@]3(C)C(=CCC4[C@@]5(C)C[C@@H](O)[C@H](O)[C@@](C)(CO)C5CC[C@]43C)C2C1 (stereo partly drawn)", "n"],
  ["Cn1c2ccccc2c2nnc(NNCc3ccccn3)nc21", "y"],
  ["Oc1ccccc1C=Nc1ccccc1N=Cc1ccccc1O.[Cu+2]", "n"],
  ["C[C@]12CC[C@@H]3c4ccc(O)cc4CC[C@H]3[C@@H]1CC[C@@H]2NS(=O)(=O)c1ccc2ccccc2c1", "n"],
  ["COC(=O)[C@@H](OC)[C@@H]1Cc2cc3cc(OC4CC(OC5CC(O)C(O)C(C)O5)C(O)C(C)O4)c(C)c(O)c3c(O)c2C(=O)[C@H]1OC1CC(OC2CC(OC3CC(C)(O)C(O)C(C)O3)C(O)C(C)O2)C(O)C(C)O1 (stereo partly drawn)", "y"],
  ["COc1cc(NC(C)CCCN)c2ncccc2c1Sc1ccc(Cl)cc1 (stereo not drawn)", "n"],
  ["FC(F)(F)c1[nH]ncc1-c1nc2ccc3[nH]ncc3c2c2c1CCCC2", "n"],
  ["Cc1cc2c(cc1C)[n+](Cc1ccc3ccccc3n1)cn2Cc1ccc2ccccc2n1", "n"]
]}
